All figures here come from ChEMBL document CHEMBL1221182.

target: UniProt P60843
Sequence (P60843 whole entry): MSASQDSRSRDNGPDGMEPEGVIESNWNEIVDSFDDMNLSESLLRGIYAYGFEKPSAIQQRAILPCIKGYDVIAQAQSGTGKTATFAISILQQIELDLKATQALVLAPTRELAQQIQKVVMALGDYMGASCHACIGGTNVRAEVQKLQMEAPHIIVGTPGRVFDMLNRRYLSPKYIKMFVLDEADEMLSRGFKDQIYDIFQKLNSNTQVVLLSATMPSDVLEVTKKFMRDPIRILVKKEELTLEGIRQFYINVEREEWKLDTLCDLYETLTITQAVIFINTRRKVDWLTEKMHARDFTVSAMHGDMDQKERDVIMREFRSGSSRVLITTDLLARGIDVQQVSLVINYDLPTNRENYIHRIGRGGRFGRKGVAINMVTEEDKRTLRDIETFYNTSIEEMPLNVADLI
Rule: measured IC50 below 9 µM gets true (1); anything equal to or greater than 9 µM gets false (0).

{"MOLECULE": "CC(=O)O[C@@H]1CC[C@@]2(C)[C@@H](CC[C@@H]3[C@@H]2[C@@H](O)C[C@@]2(C)[C@H]3C[C@@H]3O[C@@]4(C[C@H](C)C(C)(C)O4)[C@](C)(O)[C@@H]32)C1", "SYSTEM_UNDER_TEST": "UniProt P60843", "CLASS": "false (0)"}
{"MOLECULE": "C[C@H]1C[C@]2(O[C@H]3C[C@H]4[C@@H]5CC[C@H]6C[C@H](O)CC[C@]6(C)[C@H]5[C@@H](O)C[C@]4(C)[C@H]3[C@@]2(C)O)OC1(C)C [EPIHIPPURISTANOL]", "SYSTEM_UNDER_TEST": "UniProt P60843", "CLASS": "false (0)"}
{"MOLECULE": "C[C@H]1C[C@@]2(O[C@H]3C[C@H]4[C@@H]5CC[C@H]6CC(=O)CC[C@]6(C)[C@H]5C(=O)C[C@]4(C)[C@H]3[C@@]2(C)O)OC1(C)C", "SYSTEM_UNDER_TEST": "UniProt P60843", "CLASS": "false (0)"}
{"MOLECULE": "C[C@H]1C[C@@]2(O[C@H]3C[C@H]4[C@@H]5CC[C@H]6C[C@H](O)CC[C@]6(C)[C@H]5[C@@H](O)C[C@]4(C)[C@H]3[C@@]2(C)O)OC1(C)C", "SYSTEM_UNDER_TEST": "UniProt P60843", "CLASS": "true (1)"}
{"MOLECULE": "C[C@H]1C[C@]2(O[C@H]3C[C@H]4[C@@H]5CC[C@H]6CC(=O)CC[C@]6(C)[C@H]5C(=O)C[C@]4(C)[C@H]3[C@@]2(C)O)OC1(C)C", "SYSTEM_UNDER_TEST": "UniProt P60843", "CLASS": "false (0)"}
{"MOLECULE": "CC(=O)O[C@@H]1C[C@@]2(C)[C@@H](CC[C@@H]3[C@@H]2[C@@H](O)C[C@@]2(C)[C@H]3C[C@@H]3O[C@]4(C[C@H](C)C(C)(C)O4)[C@](C)(O)[C@@H]32)C[C@@H]1O [EPIHIPPURIN 1]", "SYSTEM_UNDER_TEST": "UniProt P60843", "CLASS": "false (0)"}
{"MOLECULE": "C[C@H]1C[C@]2(O[C@H]3C[C@H]4[C@@H]5CC[C@H]6C[C@H](O)CC[C@]6(C)[C@H]5C(=O)C[C@]4(C)[C@H]3[C@@]2(C)O)OC1(C)C", "SYSTEM_UNDER_TEST": "UniProt P60843", "CLASS": "false (0)"}
{"MOLECULE": "CC(=O)O[C@@H]1C[C@@]2(C)[C@@H](CC[C@@H]3[C@@H]2[C@@H](O)C[C@@]2(C)[C@H]3C[C@@H]3O[C@@]4(C[C@H](C)C(C)(C)O4)[C@](C)(O)[C@@H]32)C[C@@H]1O", "SYSTEM_UNDER_TEST": "UniProt P60843", "CLASS": "true (1)"}
{"MOLECULE": "CC(=O)O[C@@H]1CC[C@@]2(C)[C@@H](CC[C@@H]3[C@@H]2[C@@H](OC(C)=O)C[C@@]2(C)[C@H]3C[C@@H]3O[C@@]4(C[C@H](C)C(C)(C)O4)[C@](C)(O)[C@@H]32)C1", "SYSTEM_UNDER_TEST": "UniProt P60843", "CLASS": "false (0)"}
